Listing of entries alongside the reported ED50.
# Test system: Rattus norvegicus
# PROTOCOL TEXT: Anticonvulsant activity in po dosed Sprague-Dawley rat assessed as antagonism of pentylenetetrazole-induced clonic convulsions
# Format: functional

| COMPOUND | TARGET DESC | ED50 |
| --- | --- | --- |
| Cc1nnc(CN(C)C)n1-c1ccc(Cl)cc1C(N)c1ccccc1Cl (stereo not given) | Rattus norvegicus | 4.4 mg/kg |
| CN1C(=O)CN=C(c2ccccc2)c2cc(Cl)ccc21 | Rattus norvegicus | 4.8 mg/kg |
| Cc1nnc(C)n1-c1ccc(Cl)cc1C(N)c1ccccc1Cl (stereo not given) | Rattus norvegicus | > 50 mg/kg |
| Cc1nnc2n1-c1ccc(Cl)cc1C(c1ccccc1Cl)=NC2 | Rattus norvegicus | 0.18 mg/kg |

Prompt: I have this compound here, Cc1nnc(CO)n1-c1ccc(Cl)cc1C(N)c1ccccc1Cl (single isomer, unassigned; isomer 1) , and I need its recorded ED50.
Completion: > 50 mg/kg

----------
Listing of entries alongside the reported ED50.
# System: Mus musculus
# PROTOCOL TEXT: Anticonvulsant activity in ip dosed CF-1 albino mouse assessed as antagonism of nicotine-induced tonic extensor convulsions
# Format: functional
# REPORTED CONDITIONS: Mus musculus, CF-1, ip; read-out: ED50
Lab book: enter the figure in mg/kg, no units written.

A selection of reference data follows.
| COMPOUND | ED50 / mg/kg |
| --- | --- |
| Cc1nnc(CO)n1-c1ccc(Cl)cc1C(N)c1ccccc1Cl (single isomer, unassigned; isomer 1) | 0.4 |
| Cc1nnc(CN)n1-c1ccc(Cl)cc1Cc1ccccc1 | 7 |
| Cc1nnc2n1-c1ccc(Cl)cc1C(c1ccccc1Cl)=NC2 | 0.04 |
| CN/N=C/c1nnc(C)n1-c1ccc(Cl)cc1C(N)c1ccccc1Cl (stereo not drawn) | 1.3 |
| Cc1cn(-c2ccc(Cl)cc2C(N)c2ccccc2Cl)c(C)n1 (stereo not drawn) | 3.6 |

Prompt: Find the measured ED50: item Cc1nnc(C2CC2)n1-c1ccc(Cl)cc1C(N)c1ccccc1Cl (single isomer, unassigned; isomer 1) , target or system Mus musculus.
Completion: 2.3

Prompt: Find the measured ED50: item Cc1nnc(C)n1-c1ccc(Cl)cc1C(N)c1ccccc1Cl (stereo not drawn) , target or system Mus musculus.
Completion: 0.5

Prompt: Find the measured ED50: item `Cc1nnc(CN(C)C)n1-c1ccc(Cl)cc1C(=O)c1ccccc1Cl` , target or system Mus musculus.
Completion: 0.14

Prompt: Find the measured ED50: item CC(C)=NC(c1ccccc1Cl)c1cc(Cl)ccc1-n1c(C)nnc1C (stereo not drawn) , target or system Mus musculus.
Completion: 0.75

Prompt: Find the measured ED50: item `CN1C(=O)CN=C(c2ccccc2)c2cc(Cl)ccc21` , target or system Mus musculus.
Completion: 0.11

Prompt: Find the measured ED50: item Br.Cc1nccn1-c1ccc(Cl)cc1C(N)c1ccccc1 (stereo not drawn) , target or system Mus musculus.
Completion: 9

Prompt: Find the measured ED50: item Cc1nnc(/C=N/N(C)C)n1-c1ccc(Cl)cc1C(N)c1ccccc1Cl (single isomer, unassigned; isomer 1) , target or system Mus musculus.
Completion: 5.6

Prompt: Find the measured ED50: item Cc1nnc(CN(C)C)n1-c1ccc(Cl)cc1C(N)c1ccccc1Cl (stereo not drawn) , target or system Mus musculus.
Completion: 0.25
